# Tested on: K4 kissing-loop RNA reporter;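 further: bound reporter read as fluorescence of individual clusters on recovered sequencing chips by microscopy, with normalized cluster intensities fitted with a binding model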
# test_summary: apparent KD of K4 kissing-loop reporter; higher = weaker reporter binding
# test_context: Eterna round: R107; input ligand: theophylline 20 uM
Label Condition met when apparent KD of K4 kissing-loop reporter >= 200 nM; otherwise Condition not met.

UGUACCGAGUCAGGAUAUCAACGACUGACAAAGUCGGUCGAAUAUCCAGUGAUGUUGGAAAAUAACUGAGAAGGGACUUGGUACU [FmnBS 13 #SwitchBubble #StaticStem]: Condition met

**Q:** Reported apparent KD of K4 kissing-loop reporter reaches at least 200 nM for GGGAGUAGUGCGGCCGCCACUGAGAAAGAAGAAGAAUAUAGUGAUGUUAUAUAGGAAAGGAAGAACAGGACCGGGCAUUAGAUUU [SSTRyptB.F] ?
**A:** Condition met

**Q:** Reported apparent KD of K4 kissing-loop reporter reaches at least 200 nM for UCUUUACCGGGAAGGAGCGUGAAUGAGAAUGGAUAUAGUGAUGUUAUGUAUACGAACGAAUCGCAGGUAGGUCGCCCGGAUCCCU [SSArgB.aB] ?
**A:** Condition met

**Q:** Reported apparent KD of K4 kissing-loop reporter reaches at least 200 nM for AAGCAGUCAGAGAGUGAUGUUCUCAAAUAACGAGGACCGGUACGGCCGCCACUCGAAGACUGCAAGUCCUACGAAAAGUAGGACA [Omei inspired 9] ?
**A:** Condition not met

**Q:** Reported apparent KD of K4 kissing-loop reporter reaches at least 200 nM for GCCGUACGCAUGGAUACCAGCAUCAGAUCUUAGUGAUGUUAAGUCGAGAGUUGGUCAAAAUGCCCUUGGCAGCCAUGCGUACGGC ?
**A:** Condition not met

**Q:** Reported apparent KD of K4 kissing-loop reporter reaches at least 200 nM for UGGGUGUAGUGAUGUUAUAUAGAGAGUGAUACCAGUUUAGAGAAGAACCCUUGGCAGCAUAGAAGAGUAUCAUUGGAGGAGGAGG [ExTheophyl.Av] ?
**A:** Condition met

**Q:** Reported apparent KD of K4 kissing-loop reporter reaches at least 200 nM for AACUCUCAGGCACCCGAGUGAUGUUCGGGCCGAGGACCGGUACGGCCGCCACUCGGGCCUGAGAGAGGUUAUCAAAGAUAGCCAA [Omei KL Tryp A SS A v1] ?
**A:** Condition not met

**Q:** Reported apparent KD of K4 kissing-loop reporter reaches at least 200 nM for GCCGUAGAUUGAAGGAGCGGACAGAUACGGGAAUCCAGUGAUGUUGGAAGGUAACUACUAGUCCAGGUAGGUCGCAAUCUACGGC ?
**A:** Condition not met

**Q:** Reported apparent KD of K4 kissing-loop reporter reaches at least 200 nM for UGUCAUGGAAACAUGAACGUUGAUGUUCGACGAGGACCGGUACGGCCGCCACUCGAGUAAUAGUCAGUGAUGUUGACUAGUCUAA [KL-SSTryp-A form1] ?
**A:** Condition not met

====

# System: MS2 coat protein
# test_summary: apparent KD of MS2 coat protein; higher = weaker reporter binding
# test_context: Eterna round: R107; input ligand: arginine 13.2 mM
Label YES when apparent KD of MS2 coat protein >= 0.03 µM; otherwise NO.

UCACAUGAGGAUCACCCAUGUGUCAGAGAAGGAGCGGCCGCAAGGCCAGGUAGGUCGCUCGGGUAUGGUGAGGUUCACCCGUGUG [#1 Exclusion - Arginine A Attempt #13 (Inspired by cyborg)]: NO
AACAUGAGGAUCACCCAUGUCCCUCCCUCCCGAGGACCGGUACGGCCGCCACUCGCCCUCCCUCCCUAAGAAAGAAAGAAGAAGA [Same State - Trypopjan A]: YES
CCUCACGAAAUCGAUGAAAGCAUGUGGCACCGAGGACCGGUACGGCCGCCACUCGCAUCCACACAUGAGGAUCACCCAUGUAAGA [theeternabot_exclusion_MS2_Trp_A_9]: NO
AAGAAGUUUUGAUUUUUAUGAAGUAGUGAUACCAGUCAAGAAAGAGACCCUUGGCAGCGCAACAUGAGGAUCACCCAUGUAAGAA [A random design]: NO

**Q:** Reported apparent KD of MS2 coat protein reaches at least 0.03 µM for ACAUUUAACUGAAGGAGCGUGAUAUGUACAUGAGGAUCACCCAUGUCUUACAUGUGAUAUUCACAGGUAGGUCGCAGACUAAUGA [JR_ExcArginiB_Sub004] ?
**A:** NO

====

apparent KD of MS2 coat protein reference
# System: MS2 coat protein
# test_summary: apparent KD of MS2 coat protein; designed switch direction (-1 OFF switch, 1 ON switch): -1; higher = weaker reporter binding
# test_context: input ligand: none
Give a bare numeral; the unit nM is implied.

UUCUGCACGCUGCGGUCCUACAUGAGGAUCACCCAUGUGGUCUGGUGGCGUGGGUCGCCGGACUUGGCUCGUCUUGG [salish99_S_TOV1_R5_049] (Eterna round: R97, puzzle: Sensor, turn-off variant 1): 14.9
UUAAUUAAUUAAUUAUAAGAUCAACAUGAGGAUCACCCAUGUGAGGAUAUCAGCUCGAUUAGAGCUGAGAAGGCACAAAUAAUU [ExNG3/16-B1] (Eterna round: R96, puzzle: Exclusion NG 3): 44
AUACUCGAAGGAUAUGUGUAAGAGUACAUGAGGAUCACCCAUGUCCUAAGCACUUGGACGGCAGAAGGUCGACUGU [Eternabot (L2) Solution 36] (Eterna round: R97, puzzle: Exclusion 5): 25.1
GCAGCAUAGAUAACAUACUGUUACAUGAGGAUCACCCAUGUAUAGGAUAUGGUCUGGAUUACAGGCCAGAAGGGUACAAGCUGC [Eli exng3 - 022] (Eterna round: R96, puzzle: Exclusion NG 3): 14.4

**Q:** Given the entry UCUCGCGGGCAAGGAUAUCCCACGCUGUUCUGGCCCGUGUCUGUUACAUGAGGAUCACCCAUGUGGGAGAAGGUGCACCAGGGC [Design 43] (Eterna round: R96, puzzle: Exclusion NG 2) , what apparent KD of MS2 coat protein was observed with MS2 coat protein?
**A:** 29.4

**Q:** Given the entry GAACCGCGAGGAUAUACAGUCGAGUCUAUUACGUGUCUCGGACUUGAGGAUCACCCAAGUAGAAGGCGUCUCAG [salish99_ex2_r4_635] (Eterna round: R97, puzzle: Exclusion 2) , what apparent KD of MS2 coat protein was observed with MS2 coat protein?
**A:** 56.2

**Q:** Given the entry GUAUAACAUGUAGGAUAUGCGUGGCGAAGCUAUGCAGAAGGACAUGAGGAUCACCCAUGUUUUAGCGUCUGCGUACAGAUGCAA [JL ENG1 1.39] (Eterna round: R96, puzzle: Exclusion NG 1) , what apparent KD of MS2 coat protein was observed with MS2 coat protein?
**A:** 26.3

**Q:** Given the entry GUAGAGUGAGGAUAUACGAGAUCGAUAGAUCGGCGAUCCAUACAUGAGGAUCACCCAUGUAGAAGGCACUCUAC [Mat - Exclusion 2 - Eli Mod - D2] (Eterna round: R97, puzzle: Exclusion 2) , what apparent KD of MS2 coat protein was observed with MS2 coat protein?
**A:** 29.3

**Q:** Given the entry GGAUCGAAUGUGAGGAUAUGCUGGUCCUUGGAUCAGCAGAAGGCACAUGAGGAUCACCCAUGUGGUUCCGAUCC (Eterna round: R97, puzzle: Brourd's mod of Exclusion 4) , what apparent KD of MS2 coat protein was observed with MS2 coat protein?
**A:** 876

====

# Test system: MS2 coat protein
# test_summary: apparent KD of MS2 coat protein; designed switch direction (-1 OFF switch, 1 ON switch): -1; higher = weaker reporter binding
# test_context: input ligand: FMN 200 uM
metric_name: apparent KD of MS2 coat protein
Number first, unit second: that is the form wanted.

UUUUUAUAUGAAGGAUAUACUUAACAUGAGGAUCACCCAUGUGGUGUUGUGAGUGAGUGAGUUUAGUAGAAGGUCAAUUAUUUC [JMF's solution 17] (Eterna round: R96, puzzle: Exclusion NG 2): 537 nM
GUAGAGUGAGGAUAUACGAGAUCGAUAGAUCAACGAUCCAAACAUGAGGAUCACCCAUGUAGAAGGCACUCUAC [Mat - Exclusion 2 - Eli Mod - D8] (Eterna round: R97, puzzle: Exclusion 2): 224 nM
UUUCUCUGGGCGUCUUCUUACAUGAGGAUCACCCAUGUUUCGCAGGAUAUGCUAUAGUGUUAGAUGCAGAAGGGCGUUUGUUUU [JR_ExcNG3_Sub079] (Eterna round: R96, puzzle: Exclusion NG 3): 262 nM
CCCGGGCUUGUGAGGAUAUUGUGUGUGAAAGCGCGCGAGAAGGCACAUGAGGAUCACCCAUGUAAGGGCCCGGG [-34.6, -32.6 kcal, A 23%, 6bis-0] (Eterna round: R97, puzzle: Brourd's mod of Exclusion 4): 19.3 nM
AGUACUAACACGACAGUGUUAGUACAAUAAGCUUGUGAAACAUGAGGAUCACCCAUGUCCUCAUAAGCUCGUCUUAU [salish99_TOv2_r3_031] (Eterna round: R96, puzzle: Sensor v3, turn-off variant 2): 15.4 nM
AUAUUAAUAGUAAGGAUAUGCGUGUGUGUAGUUAUGCAGAAGGUACAUGAGGAUCACCCAUGUAUUAAUGUGUG [LRO-BmodExc4-08-Oppy's Opus] (Eterna round: R97, puzzle: Brourd's mod of Exclusion 4): 18 nM
ACAUCACAGCUAGGAUAUAGAUGACAUGAGGAUCACCCAUGUUAUCCCAUGUUGACGGAAACCGACUAGAAGGAGCUACAGAUG [Ex NG2 #7] (Eterna round: R96, puzzle: Exclusion NG 2): 129 nM
GCUUGCGAAGUAAGGAUAUCGGUCCGAAAGGACUACGAGAAGGUACAUGAGGAUCACCCAUGUGCGAGCAGAAU [Mod of Zala 24 - Jieux - Brourd's mod of Exclusion 4] (Eterna round: R97, puzzle: Brourd's mod of Exclusion 4): 19.6 nM
GUCAGCUCGUGAGGAUAUACAUCACUGCUUCGGCAGUGUAUUAAGAUCACAUGAGGAUCACCCAUGUAGAAGGCACGAGCUGAC [ENG2/2-A1] (Eterna round: R96, puzzle: Exclusion NG 2): 309 nM
AUCAAAGAAUAUCAUAAGCACAUGAGGAUCACCCAUGUGAUGGGUGAGAGCCUGAAAGCCACUUCUGCUCGUCUUAU [Cac Sensor turn off var1 sub9] (Eterna round: R97, puzzle: Sensor, turn-off variant 1): 969 nM

**Q:** Need apparent KD of MS2 coat protein of GCAGCAACUCUAACCAACUAAACAUGAGGAUCACCCAUGUCUCAGGAUAUGGUCUGGAUUACAGGCCAGAAGGGAGAAAGCUGC [Eli exng3 - 042] (Eterna round: R96, puzzle: Exclusion NG 3) , thanks.
**A:** 12.4 nM

**Q:** Need apparent KD of MS2 coat protein of UUCAUGUGAGGAUAUUAGUAGUAAAUGAAUAAAAUUAUUACUGAGAAGGUACAUGAGGAUCACCCAUGUUCCUU [Mat - Exclusion 4 - Eli Mod - D21] (Eterna round: R97, puzzle: Exclusion 4) , thanks.
**A:** 20.1 nM

**Q:** Need apparent KD of MS2 coat protein of AAAUAGCAUGAGGAUAUUGGACUGGAUUCAGUGCGAGAAGGCAUGACAUGAGGAUCACCCAUGUUGUGUUGGGA [EX6 #9] (Eterna round: R97, puzzle: Exclusion 6) , thanks.
**A:** 42.6 nM

**Q:** Need apparent KD of MS2 coat protein of ACUUAUUGAGGAUAUACAUUGAUUAACAUGAGGAUCACCCAUGUACAAACAUGUAUUUAUGUAGAAGGCAGAAGAA [JR_Ex5_Sub067] (Eterna round: R97, puzzle: Exclusion 5) , thanks.
**A:** 14.4 nM

**Q:** Need apparent KD of MS2 coat protein of AGUAACUCAAGAGGAUAUCACAUGAGGAUCACCCAUGUAUAGCGCGCUGCGCUAGUCCUCGUAUUUGAGAAGGUUUGAUAAAUG [Riausve] (Eterna round: R96, puzzle: Exclusion NG 2) , thanks.
**A:** 13 nM

**Q:** Need apparent KD of MS2 coat protein of AUUCCAACUUGAGGAUAUUAGUGGAACAGCCACUGAGAAGGCAGAUAACACCCUCAUAAACAUGAGGAUCACCCAUGUAGGAGA [Eternabot solution 44] (Eterna round: R96, puzzle: Exclusion NG 1) , thanks.
**A:** 132 nM

**Q:** Need apparent KD of MS2 coat protein of UCAUGUCCGGAGGAUAUGGCGCCCGUAAGGGCGCCAGAAGGCCGGACAUGAGGAUCACCCAUGUCGGCCUUCCC (Eterna round: R97, puzzle: Exclusion 6) , thanks.
**A:** 22.1 nM

**Q:** Need apparent KD of MS2 coat protein of GCACGAAGUGUAGGAUAUCUGUGCGAUUAGCUCAGAGAAGGACACAUGAGGAUCACCCAUGUGUUCCAAUACUCAAAUACGUGC [Eli exng1 - 0622] (Eterna round: R96, puzzle: Exclusion NG 1) , thanks.
**A:** 10.1 nM
